Data origin, for the record: paper PMC8873473

Biological target: α-glucosidase
Assay: α-Glucosidase (α-glycosidase) inhibitory activity, PNPG substrate
Type: biochemical
Conditions: mean ± SD, triplicates
Procedure: The inhibition of α-glucosidase activity by the synthesized molecules was measured. The α-glucosidase inhibitory activity is expressed as percentages of inhibition, which was calculated using the following formula: Inhibitoryeffect%=Ab-As/Ab∗100% where Ab and As are the absorbance values of the blank (containing PBS, α-glucosidase, and PNPG, the colored substrate of glucosidase) and the tested samples containing PBS, samples, α-glycosidase, and PNPG, respectively. […]
attributeMeasured: α-Glycosidase enzyme IC50 (µg/mL)

A. O=C(OCCSc1ccccc1)c1ccc(O)cc1
B. O=C(OCCSc1ccccc1)c1cccc(O)c1
C. O=C(OCCSc1ccccc1)c1ccccc1
I'd appreciate it if you sorted the entries above by their α-Glycosidase enzyme IC50, lowest to highest. Lab note: final answer is the ordered label list.
C, B, A
(C: 10.09 µg/mL, B: 78.1 µg/mL, A: 114.17 µg/mL)

====

biological target: porcine pancreatic amylase (Sus scrofa, UniProt P00690); construct: purchased Frutarom (UK); test: α-Amylase inhibitory activity; assay type: biochemical; settings: mean ± SD, triplicates; read-out: α-Amylase enzyme IC50 (converted)
Sequence (P00690 16-511): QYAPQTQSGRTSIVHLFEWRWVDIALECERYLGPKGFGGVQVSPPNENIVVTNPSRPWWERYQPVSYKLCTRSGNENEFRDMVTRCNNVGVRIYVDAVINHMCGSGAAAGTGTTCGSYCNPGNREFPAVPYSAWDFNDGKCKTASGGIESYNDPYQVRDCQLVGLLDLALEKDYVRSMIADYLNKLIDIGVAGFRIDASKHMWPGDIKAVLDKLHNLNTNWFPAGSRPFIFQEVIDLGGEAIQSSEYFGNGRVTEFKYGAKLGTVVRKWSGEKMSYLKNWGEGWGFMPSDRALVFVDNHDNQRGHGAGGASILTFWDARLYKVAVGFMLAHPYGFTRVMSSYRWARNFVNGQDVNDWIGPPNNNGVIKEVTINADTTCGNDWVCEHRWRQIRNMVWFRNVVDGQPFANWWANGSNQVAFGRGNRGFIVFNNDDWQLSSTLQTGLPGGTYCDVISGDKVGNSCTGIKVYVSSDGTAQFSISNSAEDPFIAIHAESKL
attributeMeasured: IC50 (µM)

compound	attributeMeasured	valueReported
O=C(OCCSc1ccccc1)c1ccccc1O [Compound 2b]	IC50	45.3
O=C(OCCSc1ccccc1)c1cccc(O)c1 [Compound 2c]	IC50	71.3

I. O=C(OCCSc1ccccc1)c1ccccc1 [Compound 2a]
II. O=C(OCCSc1ccccc1)c1ccc(O)cc1 [Compound 2d]
Hi team, can someone confirm which has the larger IC50: I or II ? Thanks. Reply with the label of the item you choose.
II
